Values compiled from paper PMC4684791.

- Method: Microsomal stability assay
- Type: in vitro ADME, rat
- Condition Summary: rat, liver microsomes
Quantity: half-life (min)
Respond with the bare value in min.

Indicate the recorded half-life value for this molecule: COc1cc(NC(=O)c2ccccn2)ccc1Cl
5.99
